Target: EP2 (Homo sapiens)
Sequence (P43116 whole entry): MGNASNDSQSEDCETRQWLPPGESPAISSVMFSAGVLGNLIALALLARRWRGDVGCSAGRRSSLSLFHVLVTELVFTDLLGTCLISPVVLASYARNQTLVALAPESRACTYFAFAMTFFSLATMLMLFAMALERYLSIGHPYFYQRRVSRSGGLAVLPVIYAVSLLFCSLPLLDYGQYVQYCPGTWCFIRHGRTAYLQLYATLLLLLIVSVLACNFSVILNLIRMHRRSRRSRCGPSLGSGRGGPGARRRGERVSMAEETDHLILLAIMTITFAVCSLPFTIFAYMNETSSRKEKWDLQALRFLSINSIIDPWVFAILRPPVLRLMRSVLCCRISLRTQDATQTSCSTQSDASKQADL
Experiment: EP2 flipr
Format: cell-based
pEC50: −log10 of the molar value.
assay readout: pEC50

>  <molecule>
C/C=C/c1cc(Cl)cc(/C=C\[C@@H]2[C@@H](CCCc3ccc(C(=O)O)s3)[C@H](Cl)C[C@H]2O)c1 [Example 11]

>  <target entity>
EP2 (Homo sapiens)

>  <pEC50>
5.66

$$$$

P. O=C(O)c1ccc(CCC[C@@H]2[C@@H](/C=C/c3cc(F)cc(F)c3)[C@H](O)C[C@H]2Cl)s1 [Example 6]
Q. O=C(O)c1csc(SCC[C@@H]2[C@@H](/C=C/c3cc(Cl)cc(Cl)c3)[C@H](O)C[C@H]2Cl)n1 [Example 14]
Just curious, which one has the larger pEC50 reading, P or Q ? Lab log: write the label of the selected item as the result.
Q

A. C=CCCc1cccc(/C=C/[C@@H]2[C@@H](CCCc3ccc(C(=O)O)s3)[C@H](Cl)C[C@H]2O)c1 [Example 9]
B. O=C(O)c1ccc(CCC[C@@H]2[C@@H](C#Cc3ccncc3)[C@H](O)C[C@H]2Cl)s1 [Example 32]
C. C=CCCc1cccc(C#C[C@@H]2[C@@H](CCCc3ccc(C(=O)O)s3)[C@H](Cl)C[C@H]2O)c1 [Example 27]
Please order the records by their reported pEC50, lowest number first. Answer format: list of labels, ordered as asked.
B, A, C
(B: 6.51, A: 7.14, C: 7.72)
